Catalogue of pIC50 readings, one per entry.
Biological target: human DGKζ (Homo sapiens)
Construct: TVMV protease cleavage site (C); Hexa-His (C); made in house; host or cells: Sf9 insect cells (baculovirus, Bac-to-Bac)
Sequence (Q13574 with tags, fused parts or gaps isoform Q13574-4): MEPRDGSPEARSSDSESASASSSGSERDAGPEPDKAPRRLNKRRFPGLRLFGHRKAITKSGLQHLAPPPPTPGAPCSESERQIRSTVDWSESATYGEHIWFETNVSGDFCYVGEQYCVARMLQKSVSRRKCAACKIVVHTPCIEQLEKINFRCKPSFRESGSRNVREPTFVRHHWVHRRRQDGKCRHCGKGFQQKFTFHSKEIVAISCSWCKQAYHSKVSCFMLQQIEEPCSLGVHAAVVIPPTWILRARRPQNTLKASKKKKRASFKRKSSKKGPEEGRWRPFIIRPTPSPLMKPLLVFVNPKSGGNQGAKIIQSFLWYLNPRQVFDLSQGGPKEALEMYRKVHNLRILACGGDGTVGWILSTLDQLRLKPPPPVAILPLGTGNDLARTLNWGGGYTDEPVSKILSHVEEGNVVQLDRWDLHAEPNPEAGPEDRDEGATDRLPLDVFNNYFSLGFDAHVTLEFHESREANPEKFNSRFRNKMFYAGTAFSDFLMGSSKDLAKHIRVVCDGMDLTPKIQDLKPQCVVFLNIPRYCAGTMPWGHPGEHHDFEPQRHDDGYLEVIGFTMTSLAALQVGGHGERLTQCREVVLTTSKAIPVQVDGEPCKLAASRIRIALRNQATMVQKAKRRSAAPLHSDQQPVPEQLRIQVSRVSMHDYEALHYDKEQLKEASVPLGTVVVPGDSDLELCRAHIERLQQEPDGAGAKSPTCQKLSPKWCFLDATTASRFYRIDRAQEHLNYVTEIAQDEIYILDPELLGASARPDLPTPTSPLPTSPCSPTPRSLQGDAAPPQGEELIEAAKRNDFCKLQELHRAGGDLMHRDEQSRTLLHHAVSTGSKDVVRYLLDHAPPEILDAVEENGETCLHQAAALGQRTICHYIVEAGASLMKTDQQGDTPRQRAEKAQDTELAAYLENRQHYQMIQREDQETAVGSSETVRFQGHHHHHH
Test: DGKζ LIPGLO assay (extruded liposome substrate), in vitro DGK inhibition
Assay type: biochemical
Conditions: liposome (LIPGLO) assay; read-out: DGKz LIPGLO IC50
pIC50: −log10 of the molar value.

>  <Molecule>
CC[C@@H]1CN(c2c(F)c(=O)n(C)c3ccc(C#N)nc23)[C@@H](C)CN1C(C)c1ccc(OC(F)(F)F)cc1 (single isomer, unassigned) [Example 1328]

>  <pIC50>
5.82

$$$$
>  <Molecule>
CC(c1ccc(C(F)(F)F)cc1)N1C[C@@H](C)N(c2cc(=O)n(C)c3ccc(C#N)nc23)C[C@@H]1C (single isomer, unassigned) [Example 346]

>  <pIC50>
5.82

$$$$
>  <Molecule>
CC(c1ccc(OC(F)(F)F)cc1)N1C[C@H](C)N(c2cc(=O)n(C)c3ccc(C#N)nc23)C[C@H]1C (single isomer, unassigned) [Example 436]

>  <pIC50>
6.09

$$$$
>  <Molecule>
C[C@@H]1CN(Cc2c(F)cc(F)cc2F)[C@@H](CO)CN1c1cc(=O)n(C)c2ccc(C#N)nc12

>  <pIC50>
5.92

$$$$
